# System: HOP-92 NSCLC
# assay remarks: NCI tumour cell line growth inhibition, 48 h
measured quantity: TGI (µM)
Could you give me the number in µM? Just the number is fine.

structure_as_smiles=Cc1cc2nc3c(C#N)c4c(c(Nc5ccc(Cl)cc5)n3c2cc1C)CCC4 result_unit=µM recorded_measurement=47.8

Returns the measured TGI for the input compound. Input: COC(=O)c1c(OC(C)=O)ccc2c1c1cc3ccccc3c(OC(C)=O)c1n2C
37

Returns the measured TGI for the input compound. Input: COc1cc[nH]c1/C=C1\C(=O)Nc2ccc([N+](=O)[O-])c(N3CC[C@@H](O)C3)c21
2.47

----------
# Test system: A498 renal
# assay remarks: NCI tumour cell line growth inhibition, 48 h
Catalogue of molecules with associated GI50

Below are worked cases with known answers.
molecule=COc1cc2c3c(n(CCCN4CCN(CCO)CC4)c(=O)c2cc1OC)-c1cc2c(cc1C3=O)OCO2 recorded_measurement="18.2 µM"
molecule=CCCC(CCC)C(=O)O recorded_measurement="> 100 µM"
molecule="O=C1CC2OCC=C3CN4CCC56c7ccccc7N1C5C2C3CC46 (stereo not given) (tested in a mixture with another compound)" recorded_measurement="> 50 µg/mL"
molecule="CNCC1CCn2c(c(C3=C(c4cn(C)c5ccccc45)C(=O)NC3=O)c3ccccc32)C1 (stereo not given)" recorded_measurement="5.65 µM"

Next, consider the following molecule.
Returns the measured GI50 for the input molecule. Input: CC1CC2(C)CC(=O)C1C1C(=O)N(CCN3CCOCC3)C(=O)C12 (stereo not given)
> 100 µM

----------
# Tested on: UO-31 renal
# assay remarks: NCI tumour cell line growth inhibition, 48 h
measured quantity: GI50

Below are worked cases with known answers.
compound="CCCCCCCCCCCCCCCC(N)c1ccccc1 (stereo not given)" study_system="UO-31 renal" recorded_measurement="1490 nM"
compound=O=S1(=O)C=C(c2ccccc2)C(c2ccccc2)=C1 study_system="UO-31 renal" recorded_measurement="1150 nM"
compound=CC(=O)Nc1nc(C)c(-c2cc3c(c(S(C)(=O)=O)c2)C(=O)N([C@@H](C)C2CC2)C3)s1 study_system="UO-31 renal" recorded_measurement="24800 nM"
compound=COc1cc[nH]c1/C=C1\C(=O)Nc2ccc([N+](=O)[O-])c(N3CC[C@@H](O)C3)c21 study_system="UO-31 renal" recorded_measurement="267 nM"

Next, consider the following compound.
Returns the measured GI50 for the input compound. Input: CCN1C(=O)N(CC)C2C1NN=c1s/c(=C\c3cnc(C)n3C)c(=O)n12 (stereo not given)
5000 nM

----------
# System: SF-268 CNS
# assay remarks: NCI tumour cell line growth inhibition, 48 h
measured quantity: TGI

Below are worked cases with known answers.
compound=O=Cc1ccc2[nH]c(=O)oc2c1 measured_quantity=TGI recorded_measurement="> 100 µM"
compound="Fc1ccc(C(OCCN2CCC3CCC(C2)N3C/C=C/c2cccnc2)c2ccc(F)cc2)cc1 (centres undefined)" measured_quantity=TGI recorded_measurement="26.2 µM"
compound=CCOc1ccccc1NC(=O)C(=O)c1c(O)c2ccc(O)cc2oc1=O measured_quantity=TGI recorded_measurement="> 100 µM"
compound=Nc1ccc2c(c1)S(=O)(=O)c1cc(N)ccc1-2 measured_quantity=TGI recorded_measurement="> 100 µM"
compound=CC(=O)N1c2ccc(-c3ccc(C(=O)O)cc3)cc2[C@H](Nc2ccc(Cl)cc2)C[C@@H]1C measured_quantity=TGI recorded_measurement="> 90.9 µM"

Returns the measured TGI for the input compound. Input: O=c1[nH]c(=S)c2[nH]c(=O)n(-c3ccccc3)c2[nH]1
> 100 µM

Returns the measured TGI for the input compound. Input: O=S1Cc2ccccc2CSS1 (centres undefined)
74.2 µM

Returns the measured TGI for the input compound. Input: O=C(N/N=C/c1cccc(O)c1)c1ccc(C(F)(F)F)nc1Nc1cccc(C(F)(F)F)c1
6.13 µM

Returns the measured TGI for the input compound. Input: CC1(C)N=C(N)N=C(N)N1CCCCc1ccccc1
> 100 µM

----------
# Tested on: SR leukemia
# assay remarks: NCI tumour cell line growth inhibition, 48 h
measured quantity: TGI

Below are worked cases with known answers.
structure_as_smiles=O=Cc1ccc2[nH]c(=O)oc2c1 recorded_measurement="> 100 µM"
structure_as_smiles=CCCC(=O)Oc1cc(OC(=O)CCC)c2c(C)cc(=O)oc2c1 recorded_measurement="76.9 µM"
structure_as_smiles=CCOc1ccccc1NC(=O)C(=O)c1c(O)c2ccc(O)cc2oc1=O recorded_measurement="> 100 µM"
structure_as_smiles=CCOC(=O)/C=C1\C[C@H](NC(=O)OCc2ccccc2)C(=O)N1CC(=O)OCC recorded_measurement="> 100 µM"
structure_as_smiles=Cc1ccc(C(=O)N/N=C(\N=Nc2ccccc2)c2ccc(N(CCC#N)CCC#N)cc2C)cc1 recorded_measurement="> 100 µM"

Next, consider the following compound.
Returns the measured TGI for the input compound. Input: Cc1ccc(NCc2nnc3c(-c4ccccc4)nc4ccccc4n23)cc1
> 100 µM

----------
# System: MOLT-4 leukemia
# assay remarks: NCI tumour cell line growth inhibition, 48 h
Catalogue of compounds with associated TGI

compound=COc1ccc2c(c1)NC(=O)CN2c1nc(C)nc2ccccc12 recorded_measurement="> 100 µM"
compound="CC(CNc1nc(Nc2ccc(Cl)c(Cl)c2)nc(C(Cl)(Cl)Cl)n1)N(C)C (stereo unspecified)" recorded_measurement="3.78 µM"

Returns the measured TGI for the input compound. Input: CC(C)C(=O)CP(=O)(O)O
> 100 µM

Returns the measured TGI for the input compound. Input: Cc1cn(C2CC(O)C(Cn3nncc3Cn3ccc(=O)[nH]c3=O)O2)c(=O)[nH]c1=O (stereo unspecified)
> 100 µM

Returns the measured TGI for the input compound. Input: N#CC1([N+](=O)[O-])C=C1c1ccccc1 (stereo unspecified)
> 100 µM

Returns the measured TGI for the input compound. Input: O=C1OC(=O)C2C1C1C(c3ccccc3)=C(c3ccccc3)C2(O)C2C(=O)OC(=O)C12 (stereo unspecified)
> 100 µM

Returns the measured TGI for the input compound. Input: CN1CCN(Cc2ccc(NC(=O)c3[nH]ncc3Nc3cc(OC4CCCC4)ncn3)cc2)CC1
8.66 µM

----------
# Tested on: HOP-62 NSCLC
# assay remarks: NCI tumour cell line growth inhibition, 48 h
measured quantity: GI50

Below are worked cases with known answers.
compound=CN1CCN(Cc2ccc(NC(=O)c3cncc(C#Cc4ncc5ccccn45)c3)cc2C(F)(F)F)CC1 study_system="HOP-62 NSCLC" measured_quantity=GI50 recorded_measurement="1.45 µM"
compound=Nc1nc(Cl)c2ncn(Cc3ccc(-c4ccc(CCl)cc4)cc3)c2n1 study_system="HOP-62 NSCLC" measured_quantity=GI50 recorded_measurement="15 µM"
compound="CCCCCCCCCCCCCCCC(N)c1ccccc1 (centres undefined)" study_system="HOP-62 NSCLC" measured_quantity=GI50 recorded_measurement="1.23 µM"
compound=COc1cc[nH]c1/C=C1\C(=O)Nc2ccc([N+](=O)[O-])c(N3CC[C@@H](O)C3)c21 study_system="HOP-62 NSCLC" measured_quantity=GI50 recorded_measurement="0.181 µM"
compound=COc1ccc(-c2cc3c(N)ncnc3o2)cc1 study_system="HOP-62 NSCLC" measured_quantity=GI50 recorded_measurement="> 25 µM"
compound=COn1cc(C(=O)N=C(SC)SC)c2ccccc21 study_system="HOP-62 NSCLC" measured_quantity=GI50 recorded_measurement="17.6 µM"
compound="CNCC1CCn2c(c(C3=C(c4cn(C)c5ccccc45)C(=O)NC3=O)c3ccccc32)C1 (centres undefined)" study_system="HOP-62 NSCLC" measured_quantity=GI50 recorded_measurement="3.62 µM"
compound=COC(=O)CCc1c(/C=C2\N=C(c3ccc[nH]3)C=C2OC)[nH]c(C)c1C(=O)OCc1ccccc1 study_system="HOP-62 NSCLC" measured_quantity=GI50 recorded_measurement="0.303 µM"
compound=COC(=O)[C@]1(C)CC[C@]2(C)CC[C@]3(C)C(=CC(=O)[C@@H]4[C@@]5(C)CCC(=O)NC(C)(C)[C@@H]5CC[C@]43C)[C@@H]2C1 study_system="HOP-62 NSCLC" measured_quantity=GI50 recorded_measurement="29 µM"
compound="CC1SC(c2cccc(Cl)c2)N(NC(=O)C(O)c2ccccc2)C1=O (centres undefined)" study_system="HOP-62 NSCLC" measured_quantity=GI50 recorded_measurement="> 100 µM"

Returns the measured GI50 for the input compound. Input: COc1ccc2c(c1)O/C(=C\c1ccc([N+](=O)[O-])s1)C2=O
8.11 µM

----------
Catalogue of compounds with associated TGI
# Test system: RXF 393 renal
# assay remarks: NCI tumour cell line growth inhibition, 48 h

Below are worked cases with known answers.
compound=CC(C)C(=O)CP(=O)(O)O recorded_measurement="> 100 µM"
compound=Cc1cc(C)nc(NS(=O)(=O)c2ccc(NC(=O)c3ccc4nc5ccccc5c(Nc5ccc(S(=O)(=O)Nc6nc(C)cc(C)n6)cc5)c4c3)cc2)n1 recorded_measurement="> 100 µM"
compound=O=S1(=O)C=C(c2ccccc2)C(c2ccccc2)=C1 recorded_measurement="3 µM"

Returns the measured TGI for the input compound. Input: OCC(O)C(OC1OC(CO)C(O)C(O)C1O)c1nn(-c2ccc(Cl)cc2)c2nc3cc(Cl)ccc3nc12 (stereo unspecified)
> 100 µM

Returns the measured TGI for the input compound. Input: C=[N+](CNC(=O)CNC(=O)C(Cc1ccccc1)NC(=O)OC(C)(C)C)C(=O)CNC(=O)C(Cc1ccccc1)NC(=O)OC(C)(C)C (stereo unspecified)
> 100 µM

Returns the measured TGI for the input compound. Input: Cc1nc2c(s/c(=N\N)n2-c2ccccc2)c(=O)n1C
> 100 µM

Returns the measured TGI for the input compound. Input: Cc1ccc(S(=O)(=O)N/N=C2\CC3C4CCC3C2C4)cc1 (stereo unspecified)
> 100 µM
